testSystem: T1, human iRhom2 (inactive rhomboid protein 2, isoform 1), endogenously expressed on human cells (human, UniProt Q6PJF5 1-856)
T1 sequence: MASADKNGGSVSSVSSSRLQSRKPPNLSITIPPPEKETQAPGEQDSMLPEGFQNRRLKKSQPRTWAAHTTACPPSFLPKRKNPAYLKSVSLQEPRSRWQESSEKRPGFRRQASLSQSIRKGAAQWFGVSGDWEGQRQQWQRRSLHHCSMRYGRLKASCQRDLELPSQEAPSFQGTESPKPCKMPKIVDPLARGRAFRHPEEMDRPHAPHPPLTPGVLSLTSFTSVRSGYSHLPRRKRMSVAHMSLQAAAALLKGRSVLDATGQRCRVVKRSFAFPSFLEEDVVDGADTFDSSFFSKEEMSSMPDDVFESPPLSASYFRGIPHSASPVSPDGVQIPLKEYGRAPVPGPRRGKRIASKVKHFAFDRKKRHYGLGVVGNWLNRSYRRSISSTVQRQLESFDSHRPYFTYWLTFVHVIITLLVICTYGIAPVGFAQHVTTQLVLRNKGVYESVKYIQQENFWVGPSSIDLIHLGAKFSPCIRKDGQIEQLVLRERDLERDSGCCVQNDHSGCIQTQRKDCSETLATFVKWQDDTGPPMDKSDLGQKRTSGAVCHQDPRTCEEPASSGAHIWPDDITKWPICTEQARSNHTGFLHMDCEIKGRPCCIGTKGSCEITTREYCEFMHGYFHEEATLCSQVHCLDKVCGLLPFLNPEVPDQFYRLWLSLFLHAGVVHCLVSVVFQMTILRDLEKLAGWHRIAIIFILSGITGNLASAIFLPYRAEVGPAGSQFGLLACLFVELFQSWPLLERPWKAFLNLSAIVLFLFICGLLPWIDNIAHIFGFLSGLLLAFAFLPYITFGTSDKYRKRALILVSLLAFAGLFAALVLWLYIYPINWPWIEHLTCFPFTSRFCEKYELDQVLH
assayDetails: cell-based or functional assay
Measured inhibition of PMA-induced release of HB-EGF from THP-1 cells, 3 µg/ml of individual entries
Give just the number in % inhibition; leave the unit off.

Study these solved cases before continuing.
antibody 44 (antibody, V domains shown, Mouse IgG, kappa light chain; also called clone #44; m44) VH: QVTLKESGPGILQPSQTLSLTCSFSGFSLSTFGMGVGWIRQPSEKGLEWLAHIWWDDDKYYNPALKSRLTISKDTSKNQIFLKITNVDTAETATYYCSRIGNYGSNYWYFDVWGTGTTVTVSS VL: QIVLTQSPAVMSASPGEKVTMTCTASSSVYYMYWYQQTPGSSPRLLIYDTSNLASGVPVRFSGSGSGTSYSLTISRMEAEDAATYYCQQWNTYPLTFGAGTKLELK    67.5
chimeric version of antibody 16 (antibody, V domains shown, Chimeric version made in CHO cells, detected with anti-human IgG; the variable domains are those of clone #16; also called ch16) VH: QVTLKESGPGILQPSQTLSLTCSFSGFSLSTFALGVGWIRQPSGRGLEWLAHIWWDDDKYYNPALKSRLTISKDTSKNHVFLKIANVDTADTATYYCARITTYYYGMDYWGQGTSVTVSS VL: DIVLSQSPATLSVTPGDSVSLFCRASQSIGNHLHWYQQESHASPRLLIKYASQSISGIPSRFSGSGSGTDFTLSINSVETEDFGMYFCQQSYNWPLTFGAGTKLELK    73.6
chimeric version of antibody 44 (antibody, V domains shown) VH: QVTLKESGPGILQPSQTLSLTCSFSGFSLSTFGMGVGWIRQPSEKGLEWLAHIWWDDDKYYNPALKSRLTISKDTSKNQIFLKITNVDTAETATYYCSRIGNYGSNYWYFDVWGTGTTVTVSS VL: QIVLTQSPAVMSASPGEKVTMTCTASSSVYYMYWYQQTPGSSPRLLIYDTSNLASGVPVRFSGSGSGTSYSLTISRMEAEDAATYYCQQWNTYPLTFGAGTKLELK    70.7

# inhibition of PMA-induced release of HB-EGF from THP-1 cells, 3 µg/ml of antibody 34 (antibody, V domains shown, Mouse IgG, kappa light chain; also called clone #34; m34) VH: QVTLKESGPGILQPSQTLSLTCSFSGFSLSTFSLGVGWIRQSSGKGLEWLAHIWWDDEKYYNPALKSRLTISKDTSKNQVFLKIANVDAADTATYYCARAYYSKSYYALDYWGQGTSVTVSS VL: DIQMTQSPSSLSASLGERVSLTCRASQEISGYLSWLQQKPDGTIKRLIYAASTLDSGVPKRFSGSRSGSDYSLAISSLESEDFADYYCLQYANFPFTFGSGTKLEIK = 64.2
